// provenance: patent US20200024330A1

Biological target: HIV-1 JR-CSF Env S199A (HIV-1 JR-CSF) (UniProt P20871)
Assay: cell-based or functional assay
# Fold IC50 increase relative to wild-type per record follows
METRIC: Fold IC50 increase relative to wild-type

BINDER	MEAS_VALUE
PGT-135 (antibody, V domains shown) VH: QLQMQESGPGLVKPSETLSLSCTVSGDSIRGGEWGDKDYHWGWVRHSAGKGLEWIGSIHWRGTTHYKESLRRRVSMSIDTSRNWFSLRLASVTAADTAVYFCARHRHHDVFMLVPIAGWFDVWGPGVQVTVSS VL: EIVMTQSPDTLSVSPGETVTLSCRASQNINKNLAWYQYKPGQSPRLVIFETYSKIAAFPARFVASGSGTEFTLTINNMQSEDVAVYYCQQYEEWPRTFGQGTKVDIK	0.3 fold
PGT-131 (antibody, V domains shown) VH: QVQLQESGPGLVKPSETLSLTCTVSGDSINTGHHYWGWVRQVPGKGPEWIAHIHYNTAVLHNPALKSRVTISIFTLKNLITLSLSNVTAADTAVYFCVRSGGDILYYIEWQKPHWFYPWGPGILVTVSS VL: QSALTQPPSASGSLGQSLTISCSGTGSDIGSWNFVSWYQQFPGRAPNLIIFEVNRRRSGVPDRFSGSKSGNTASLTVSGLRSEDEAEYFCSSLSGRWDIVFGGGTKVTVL	1.6 fold
PGT-123 (antibody, V domains shown) VH: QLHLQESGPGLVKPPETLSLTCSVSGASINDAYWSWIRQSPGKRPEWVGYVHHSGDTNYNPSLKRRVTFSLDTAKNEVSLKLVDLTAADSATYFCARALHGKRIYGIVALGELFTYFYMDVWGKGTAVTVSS VL: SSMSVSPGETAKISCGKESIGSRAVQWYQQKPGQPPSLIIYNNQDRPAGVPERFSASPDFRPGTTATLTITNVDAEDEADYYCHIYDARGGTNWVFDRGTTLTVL	1.1 fold
PGT-125 (antibody, V domains shown) VH: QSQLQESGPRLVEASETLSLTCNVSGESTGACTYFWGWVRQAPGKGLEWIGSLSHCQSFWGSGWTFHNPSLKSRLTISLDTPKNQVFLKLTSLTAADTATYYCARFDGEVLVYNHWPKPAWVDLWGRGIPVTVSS VL: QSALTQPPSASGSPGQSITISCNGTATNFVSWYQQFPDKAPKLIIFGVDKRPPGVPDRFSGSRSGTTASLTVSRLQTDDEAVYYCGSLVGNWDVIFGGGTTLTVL	0.7 fold
PGT-127 (antibody, V domains shown) VH: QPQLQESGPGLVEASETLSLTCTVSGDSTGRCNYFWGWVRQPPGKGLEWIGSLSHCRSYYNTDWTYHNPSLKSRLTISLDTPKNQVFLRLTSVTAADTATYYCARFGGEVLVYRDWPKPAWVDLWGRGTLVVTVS VL: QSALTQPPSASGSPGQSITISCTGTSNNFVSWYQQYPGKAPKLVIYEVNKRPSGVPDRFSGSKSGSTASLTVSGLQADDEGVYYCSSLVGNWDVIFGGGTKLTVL	3 fold
